Taken from patent US9856288B2.

# TARGET: proteasome T-L active site (Homo sapiens)
# ASSAY_INFO: Proteasome T-L inhibition, substrate Bz-Val-Gly-Arg-AMC
# Format: biochemical
OBSERVABLE: IC50 (nM)

given_smiles=CC(C)C[C@H](NC(=O)N1CCC(C(=O)Nc2ccccn2)CC1)C(=O)N[C@@H](Cc1ccccc1)C(=O)N[C@@H](CC(C)C)C(=O)[C@@]1(C)CO1 target="proteasome T-L active site (Homo sapiens)" unit_of_measure=nM reported_value=3180
